- MEASUREMENT DESCRIPTION: BSK_SAg_Proliferation: Cell Proliferation Assessment in the BioMAP Diversity Plus: SAg Assay (AID 2283095);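 note: relative cell number as total protein by SRB absorbance in sub-confluent culture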
- ASSAY SETUP: primary human HUVEC with PBMC
Calls of active or inactive are those of the source. Rule for the calls: active = hit-call score of the fitted dose curve at least 0.9, where 1 is the maximum; inactive = score below 0.9.
Mark one answer only. Choices: active, inactive

Worked examples follow.
Prompt line: In this assay, the call recorded for Nc1ccc(C(=O)O)cc1 was what?
Response line: inactive

Prompt line: In this assay, the call recorded for Nc1nc(N)nc(-c2ccccc2)n1 was what?
Response line: inactive

Next:
Prompt line: In this assay, the call recorded for CC(C)CCCCCOC(=O)CS was what?
Response line: inactive

Prompt line: In this assay, the call recorded for O=C(Oc1ccccc1)c1ccccc1C(=O)Oc1ccccc1 was what?
Response line: active

Prompt line: In this assay, the call recorded for CC(C)[N+](C)(CCOC(=O)C1c2ccccc2Oc2ccccc21)C(C)C was what?
Response line: inactive

Prompt line: In this assay, the call recorded for O=C(Cl)c1c(Cl)c(Cl)c(C(=O)Cl)c(Cl)c1Cl was what?
Response line: inactive

Prompt line: In this assay, the call recorded for CCCCC1C(=O)N(c2ccccc2)N(c2ccccc2)C1=O was what?
Response line: inactive

---

- MEASUREMENT DESCRIPTION: BSK_4H_Eotaxin3: BioMAP Diversity Plus: 4H Assay for Eotaxin 3 Biomarker Activity (AID 2283000)
- ASSAY SETUP: primary human endothelial cells (HUVEC); actives raise or lower the signal
Active and inactive are the calls of the source. How the source made its calls: active means hit-call score of the fitted dose curve at least 0.9, where 1 is the maximum; inactive means score below 0.9.
Mark one answer only. Choices: Y (active), N (inactive)

Prompt line: In this assay, the call recorded for CC(C)c1cccc(C(C)C)c1N was what?
Response line: Y

Next:
Prompt line: In this assay, the call recorded for O=C(O)C(F)(F)C(F)(F)C(F)(F)C(F)(F)C(=O)O was what?
Response line: N

Prompt line: In this assay, the call recorded for CCCC(C)C(=O)OCC (centres undefined) was what?
Response line: N

Prompt line: In this assay, the call recorded for CCCCCC1=CCCC1=O was what?
Response line: N

Prompt line: In this assay, the call recorded for CC=C(C)C(C)=O was what?
Response line: Y

Prompt line: In this assay, the call recorded for O=C1CCCCCCCCCCCN1 was what?
Response line: N

Prompt line: In this assay, the call recorded for Clc1cc(Cl)c(Cl)c(Cl)c1Cl was what?
Response line: Y

Prompt line: In this assay, the call recorded for CC(C)[N+](C)(CCOC(=O)C1c2ccccc2Oc2ccccc21)C(C)C was what?
Response line: N

Prompt line: In this assay, the call recorded for CCC1(C)C(=O)N(Cl)C(=O)N1Cl (centres undefined) was what?
Response line: N

Prompt line: In this assay, the call recorded for Nc1cccc(N)n1 was what?
Response line: N

Prompt line: In this assay, the call recorded for CC(CCC(=O)O)(c1ccc(O)cc1)c1ccc(O)cc1 was what?
Response line: N

Prompt line: In this assay, the call recorded for C=CC(=O)NCOCCCC was what?
Response line: N

Prompt line: In this assay, the call recorded for C=CCCCCCCCCC=O was what?
Response line: N

Prompt line: In this assay, the call recorded for O=C1CCCCCCCCCCC1 was what?
Response line: N

Prompt line: In this assay, the call recorded for CCCCC1C(=O)N(c2ccccc2)N(c2ccccc2)C1=O was what?
Response line: N

---

- MEASUREMENT DESCRIPTION: ATG_ISRE_CIS: Attagene CIS-FACTORIAL HepG2 Assay for human Interferon Regulatory Factor 1 (IRF1) binding to an Interferon-Stimulated Response Element (ISRE) (AID 2282948)
- ASSAY SETUP: HepG2 ISRE cis-reporter (Attagene), mRNA transcription readout; actives raise or lower the signal
Active and inactive are the calls of the source. How the source made its calls: active means hit-call score of the fitted dose curve at least 0.9, where 1 is the maximum; inactive means score below 0.9.
Mark one answer only. Choices: active, inactive

Prompt line: In this assay, the call recorded for CC(=O)OC(C)c1ccccc1 (stereo unspecified) was what?
Response line: inactive

Prompt line: In this assay, the call recorded for O=C(O)c1ccc2c(c1)C(=O)OC2=O was what?
Response line: inactive

Prompt line: In this assay, the call recorded for [Cl][Sc]([Cl])[Cl] was what?
Response line: inactive

Prompt line: In this assay, the call recorded for CCCCC(CC)COC(=O)/C=C/c1ccc(OC)cc1 (stereo unspecified) was what?
Response line: inactive

Prompt line: In this assay, the call recorded for Cc1ccc(S(=O)(=O)N=C=O)cc1 was what?
Response line: inactive

Lab note: next compound to report on.
Prompt line: In this assay, the call recorded for CCCCCC[C@@H](O)C/C=C\CCCCCCCC(=O)OCC(O)CO (stereo partly specified) was what?
Response line: inactive

Source: PubChem BioAssay (EPA / NIEHS)
